Assign log10 of Ki to each entry below.
Biological target: human GPR10 (Homo sapiens (Human))
Sequence (P49683 whole entry): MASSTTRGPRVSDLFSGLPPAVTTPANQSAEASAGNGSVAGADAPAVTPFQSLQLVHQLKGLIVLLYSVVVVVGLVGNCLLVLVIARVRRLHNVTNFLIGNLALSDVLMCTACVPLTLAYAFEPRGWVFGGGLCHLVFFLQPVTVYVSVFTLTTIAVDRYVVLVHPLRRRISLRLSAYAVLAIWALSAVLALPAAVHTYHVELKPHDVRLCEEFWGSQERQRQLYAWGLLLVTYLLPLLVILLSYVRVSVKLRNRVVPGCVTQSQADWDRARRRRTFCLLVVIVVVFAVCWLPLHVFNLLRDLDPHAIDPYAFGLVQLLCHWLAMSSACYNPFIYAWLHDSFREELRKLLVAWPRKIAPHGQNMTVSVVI
Assay: Inhibitory activity on binding of [3H]-PrRP to GPR10 (HEK 293 cell membrane fraction)
Settings: [3H]-PrRP 1 nM, human GPR10-expressing HEK 293 cell membrane fraction; Ki from IC50 by Cheng-Prussoff formula
Counter-ions that a name gives are not always drawn.
Hi team, quick reminder: these entries are log10 of Ki (nM).

I would be grateful if you could share the reported log10 of Ki for C#CCn1c(N[C@@H](C)c2ccc(C(F)(F)F)cc2)nc2c(c1=O)CN(C(=O)c1ccc(Cl)cc1)CC2 [Example 2, hydrochloride] .
1.46

I would be grateful if you could share the reported log10 of Ki for CCOn1c(N[C@H](C)c2ccc(C(F)(F)F)cc2)nc2c(c1=O)CN(C(=O)c1cc3cccnc3s1)CC2 [Example 121] .
1.23

I would be grateful if you could share the reported log10 of Ki for COn1c(NCc2ccc(Cl)cc2)nc2c(c1=O)CN(C(=O)c1ccc(Cl)cc1)CC2 [Example 2462, hydrochloride] .
1.99

I would be grateful if you could share the reported log10 of Ki for CCC(Nc1nc2c(c(=O)n1OC)CN(C(=O)c1ccc(Cl)cc1)CC2)c1ccc(Cl)cc1.Cl (stereo not drawn) [Example 2421, hydrochloride] .
1.64

I would be grateful if you could share the reported log10 of Ki for CC#CCn1c(N[C@@H](C)c2ccc(C(F)(F)F)cc2)nc2c(c1=O)CN(C(=O)c1ccc3cccnc3c1)CC2 [Example 2417, dihydrochloride] .
1.23

I would be grateful if you could share the reported log10 of Ki for CC#CCn1c(N[C@@H](C)c2ccc(C(F)(F)F)cc2)nc2c(c1=O)CN(C(=O)c1ccc(C#N)cc1F)CC2 [Example 2406, hydrochloride] .
0.30
